Recorded values, source patent US11814435B2.

Below, each entry is listed with its recorded ka (1/Ms) cyBCMA @ 37° C..
- Tested on: cyBCMA
- assay method text: Kinetics and affinity of cyBCMA/human IgG interactions by SPR (Bio-Rad Proteon XPR36)
- Type: binding, cynomolgus
- reported conditions: 37° C.
Numbers only; they are read as M⁻¹ s⁻¹.

molecule	unit label	ka (1/Ms) cyBCMA @ 37° C.
L3.PY/L3.KF/H3.AE: anti-BCMA antibody (antibody, V domains shown) VH: EVQLLESGGGLVQPGGSLRLSCAASGFTFGSYAMTWVRQAPGKGLEWVSAISGSGGNTFYADSVKGRFTISRDNSKNTLYLQMNSLRAEDTAVYYCARVSPIAAEMDYWGQGTLVTVSS VL: EIVLTQSPGTLSLSPGERATLSCRASQSVSSSYLAWYQQKPGQAPRLLIYGASSRATGIPDRFSGSGSGTDFTLTISRLEPEDFAVYYCKFYPYPPSFTFGQGTKVEIK	M⁻¹ s⁻¹	1.85e+06

Here's the next entry for you.
[ask] Identify measured ka (1/Ms) cyBCMA @ 37° C. associated with L3.PY/L1.FF/H3.AE: anti-BCMA antibody (antibody, V domains shown) VH: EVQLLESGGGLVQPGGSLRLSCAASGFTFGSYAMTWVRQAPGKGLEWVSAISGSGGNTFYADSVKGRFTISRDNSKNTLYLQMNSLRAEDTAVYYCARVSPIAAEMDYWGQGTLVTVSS VL: EIVLTQSPGTLSLSPGERATLSCRASQSVSSFFLAWYQQKPGQAPRLLIYGASSRATGIPDRFSGSGSGTDFTLTISRLEPEDFAVYYCQHYPYPPSFTFGQGTKVEIK
[reply] 2.85e+06
